Origin of values: patent US20260184697A1

Biological target: EZH2/SUZ/EED (Homo sapiens, UniProt O75530+Q15022+Q15910)
Sequence (Q15910 2-746 limits assumed): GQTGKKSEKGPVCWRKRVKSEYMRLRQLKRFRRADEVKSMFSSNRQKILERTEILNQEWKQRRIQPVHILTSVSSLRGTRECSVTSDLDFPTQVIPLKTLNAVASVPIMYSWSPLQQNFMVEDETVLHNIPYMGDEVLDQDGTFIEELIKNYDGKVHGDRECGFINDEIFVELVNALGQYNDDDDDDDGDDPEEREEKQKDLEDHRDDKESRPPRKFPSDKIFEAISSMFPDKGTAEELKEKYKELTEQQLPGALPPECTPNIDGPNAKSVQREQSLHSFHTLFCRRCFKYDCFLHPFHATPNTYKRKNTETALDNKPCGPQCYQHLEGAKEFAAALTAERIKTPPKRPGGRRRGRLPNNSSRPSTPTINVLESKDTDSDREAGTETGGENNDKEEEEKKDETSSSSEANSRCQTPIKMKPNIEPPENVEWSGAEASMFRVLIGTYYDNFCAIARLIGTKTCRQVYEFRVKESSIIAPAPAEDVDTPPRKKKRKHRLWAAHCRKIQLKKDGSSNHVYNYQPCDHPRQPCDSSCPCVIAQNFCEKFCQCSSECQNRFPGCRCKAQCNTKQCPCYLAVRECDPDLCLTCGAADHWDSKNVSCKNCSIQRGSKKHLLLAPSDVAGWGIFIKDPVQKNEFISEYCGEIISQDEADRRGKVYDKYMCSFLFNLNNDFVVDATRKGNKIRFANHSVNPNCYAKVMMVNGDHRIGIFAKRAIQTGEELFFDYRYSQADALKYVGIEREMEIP
Sequence (Q15022 2-739 partner limits assumed): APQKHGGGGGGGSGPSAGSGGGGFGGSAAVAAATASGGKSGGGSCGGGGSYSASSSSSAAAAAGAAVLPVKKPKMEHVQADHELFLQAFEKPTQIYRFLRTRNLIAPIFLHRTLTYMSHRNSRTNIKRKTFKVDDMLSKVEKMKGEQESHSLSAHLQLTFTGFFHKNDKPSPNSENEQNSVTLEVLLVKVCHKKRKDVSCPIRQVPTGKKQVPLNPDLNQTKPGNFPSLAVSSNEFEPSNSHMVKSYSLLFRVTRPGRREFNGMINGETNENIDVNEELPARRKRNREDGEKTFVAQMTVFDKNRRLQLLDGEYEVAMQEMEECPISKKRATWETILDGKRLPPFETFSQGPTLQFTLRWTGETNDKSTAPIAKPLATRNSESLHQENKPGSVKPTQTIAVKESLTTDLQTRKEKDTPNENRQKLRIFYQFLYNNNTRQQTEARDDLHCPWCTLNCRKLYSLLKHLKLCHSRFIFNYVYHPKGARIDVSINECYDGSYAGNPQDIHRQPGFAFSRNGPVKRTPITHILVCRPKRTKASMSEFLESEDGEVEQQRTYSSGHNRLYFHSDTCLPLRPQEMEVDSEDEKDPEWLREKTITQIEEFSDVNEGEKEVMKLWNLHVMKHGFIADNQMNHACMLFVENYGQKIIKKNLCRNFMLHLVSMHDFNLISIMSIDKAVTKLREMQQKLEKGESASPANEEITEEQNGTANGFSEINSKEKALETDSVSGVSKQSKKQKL
Sequence (O75530 2-441 partner limits assumed): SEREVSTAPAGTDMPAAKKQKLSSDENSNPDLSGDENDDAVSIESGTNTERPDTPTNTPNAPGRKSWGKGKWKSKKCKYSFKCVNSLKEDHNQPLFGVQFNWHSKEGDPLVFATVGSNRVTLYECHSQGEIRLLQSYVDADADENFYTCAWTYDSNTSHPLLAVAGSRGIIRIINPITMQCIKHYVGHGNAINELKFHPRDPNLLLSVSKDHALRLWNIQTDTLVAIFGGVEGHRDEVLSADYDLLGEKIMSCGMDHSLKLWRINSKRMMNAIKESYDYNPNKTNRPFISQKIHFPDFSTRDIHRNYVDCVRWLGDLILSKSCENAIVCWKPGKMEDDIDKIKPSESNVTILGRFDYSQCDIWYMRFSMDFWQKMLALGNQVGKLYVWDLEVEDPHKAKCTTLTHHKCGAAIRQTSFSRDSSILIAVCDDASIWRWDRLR
Assay: Inhibitory effect on EZH2 by the MTase-Glo method (Test Example 1)
Conditions: EZH2/SUZ/EED 6.25 nM, H3 peptide 10 μM, SAM 3 μM, 30° C. 3 h, read-out: Test Example 1 WT EZH2 IC50
pIC50: −log10 of the molar value.
Measured pIC50 values are reported for all entries that follow.

# compound, pIC50
records = [
    ("CO[C@H]1CCN([C@H]2CC[C@@H]([C@H]3COc4c(Cl)cc(C(=O)NCc5c(SC)cc(C)[nH]c5=O)c(C)c4O3)CC2)C1 [Compound 39]", 8.40),
    ("Cc1cc(C)c(CNC(=O)c2cc(Cl)c3c(c2C)OC(C2CCN(CC4COC4)CC2)CO3)c(=O)[nH]1 (centres unmarked) [Compound 83]", 8.09),
    ("CSc1cc(C)[nH]c(=O)c1CNC(=O)c1cc(Cl)c2c(c1C)O[C@@H](C1CCN(CC3CCC3)CC1)CO2 [Compound 25]", 8.80),
    ("COCCOC1CN([C@H]2CC[C@@H]([C@H]3COc4c(Cl)cc(C(=O)NCc5c(C)cc(C)[nH]c5=O)c(C)c4O3)CC2)C1 [Compound 91]", 8.42),
    ("CSc1cc(C)[nH]c(=O)c1CN(C)C(=O)c1cc(Cl)c2c(c1C)O[C@@H]([C@H]1CC[C@@H](N(C)C)CC1)CO2 [Compound 128]", 8.02),
    ("Cc1cc(C)c(CNC(=O)c2cc(Cl)c3c(c2C)OC(C2CCC(N(C)C)CC2)C(C)O3)c(=O)[nH]1 (centres unmarked) [Compound 124]", 7.79),
    ("Cc1cc(C)c(CNC(=O)c2cc(Cl)c3c(c2C)OC(C2CCN(C)CC2)CO3)c(=O)[nH]1 (centres unmarked) [Compound 1]", 7.56),
    ("CSc1cc(C)[nH]c(=O)c1CNC(=O)c1cc(Cl)c2c(c1C)OC(C1CCC(N(C)C)CC1)CO2 (centres unmarked) [Compound 3]", 8.48),
    ("Cc1cc(Cl)c(CNC(=O)c2cc(Cl)c3c(c2C)O[C@@H]([C@H]2CC[C@H](N(C)C)CC2)CO3)c(=O)[nH]1 [Compound 174]", 8.51),
    ("Cc1cc(C)c(CNC(=O)c2cc(Cl)c3c(c2C)O[C@@H](C2CCN(CC4CC4)CC2)CO3)c(=O)[nH]1 [Compound 90]", 7.73),
    ("Cc1cc(C)c(CNC(=O)c2cc(Cl)c3c(c2C)OC(C2CCC(NC4CC(F)(F)C4)CC2)CO3)c(=O)[nH]1 (single isomer, unassigned) [Compound 66]", 7.61),
    ("CSc1cc(C)[nH]c(=O)c1CNC(=O)c1cc(C#N)c2c(c1C)O[C@@H]([C@H]1CC[C@@H](N3CC(OC(F)F)C3)CC1)CO2 [Compound 163]", 8.15),
    ("Cc1cc(C)c(CNC(=O)c2cc(Cl)c3c(c2C)OC(C2CCC(N4CC5COCC5C4)CC2)CO3)c(=O)[nH]1 (single isomer, unassigned) [Compound 60]", 7.79),
    ("COc1cc(C)[nH]c(=O)c1CNC(=O)c1cc(Cl)c2c(c1C)O[C@@H]([C@H]1CC[C@@H](N3CC4CC4C3)CC1)CO2 (some centres unmarked) [Compound 113]", 8.03),
    ("COCCN(C)[C@H]1CC[C@H]([C@H]2COc3c(Cl)cc(C(=O)NCc4c(SC)cc(C)[nH]c4=O)c(C)c3O2)CC1 [Compound 27]", 8.64),
    ("COc1cc(C)[nH]c(=O)c1CNC(=O)c1cc(Cl)c2c(c1C)O[C@@H]([C@H]1CC[C@@H](N3CC(OCCF)C3)CC1)CO2 [Compound 109]", 8.70),
    ("Cc1cc(C)c(CNC(=O)c2cc(Cl)c3c(c2Cl)O[C@H]([C@H]2CC[C@@H](N(C)C)CC2)CO3)c(=O)[nH]1 [Compound 142]", 5.93),
    ("Cc1cc(C)c(CNC(=O)c2ccc3c(c2C)COC(C)(C2CCC(N(C)C)CC2)O3)c(=O)[nH]1 (centres unmarked) [Compound 4]", 5.14),
    ("Cc1cc(C)c(CNC(=O)c2cc(Cl)c3c(c2C)O[C@@H]([C@H]2CC[C@H](N4CC5COCC5C4)CC2)CO3)c(=O)[nH]1 (some centres unmarked) [Compound 75]", 7.32),
    ("Cc1cc(C)c(CNC(=O)c2cc(Cl)c3c(c2Cl)O[C@@H]([C@H]2CC[C@H](N(C)C)CC2)CO3)c(=O)[nH]1 [Compound 144]", 7.81),
    ("Cc1cc(C)c(CNC(=O)c2cc(Cl)c3c(c2C)O[C@H]([C@H]2CC[C@@H](N(C)C)CC2)CO3)c(=O)[nH]1 [Compound 54]", 6.60),
    ("COc1c(Cl)c2c(c(C)c1C(=O)NCc1c(C)cc(C)[nH]c1=O)O[C@@H]([C@H]1CC[C@H](N(C)C)CC1)CO2 [Compound 135]", 7.10),
    ("CON=C1CCC([C@H]2COc3c(Cl)cc(C(=O)NCc4c(C)cc(C)[nH]c4=O)c(C)c3O2)CC1 (some centres unmarked) [Compound 93]", 8.22),
    ("COc1cc(C)[nH]c(=O)c1CN(C)C(=O)c1cc(Cl)c2c(c1C)O[C@@H]([C@H]1CC[C@@H](N(C)C)CC1)CO2 [Compound 129]", 8.41),
    ("COC1CN([C@H]2CC[C@H]([C@H]3COc4c(Cl)cc(C(=O)NCc5c(SC)cc(C)[nH]c5=O)c(C)c4O3)CC2)C1 [Compound 9]", 8.51),
    ("CSc1cc(C)[nH]c(=O)c1CNC(=O)c1cc(Cl)c2c(c1C)O[C@@H]([C@H]1CC[C@H](N3CC(OC4CC4)C3)CC1)CO2 [Compound 10]", 6.80),
]
